biological target: Rac GTPase-activating protein 1 (Homo sapiens) (UniProt Q9H0H5); experiment: blockers of MgcRacGAP-driven Rac1 GTP hydrolysis – biochemical, ADP Hunter fluorescence, primary and confirmatory, confirmation (AID 624330); details: MgcRacGAP-stimulated Rac1 GTP hydrolysis, at 30 µM, active compounds read high, GST-tagged Rac1 F28L mutant substrate;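 further: fluorescence reports GDP produced by GAP-driven GTP hydrolysis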
Sequence (Q9H0H5 whole entry, looked up): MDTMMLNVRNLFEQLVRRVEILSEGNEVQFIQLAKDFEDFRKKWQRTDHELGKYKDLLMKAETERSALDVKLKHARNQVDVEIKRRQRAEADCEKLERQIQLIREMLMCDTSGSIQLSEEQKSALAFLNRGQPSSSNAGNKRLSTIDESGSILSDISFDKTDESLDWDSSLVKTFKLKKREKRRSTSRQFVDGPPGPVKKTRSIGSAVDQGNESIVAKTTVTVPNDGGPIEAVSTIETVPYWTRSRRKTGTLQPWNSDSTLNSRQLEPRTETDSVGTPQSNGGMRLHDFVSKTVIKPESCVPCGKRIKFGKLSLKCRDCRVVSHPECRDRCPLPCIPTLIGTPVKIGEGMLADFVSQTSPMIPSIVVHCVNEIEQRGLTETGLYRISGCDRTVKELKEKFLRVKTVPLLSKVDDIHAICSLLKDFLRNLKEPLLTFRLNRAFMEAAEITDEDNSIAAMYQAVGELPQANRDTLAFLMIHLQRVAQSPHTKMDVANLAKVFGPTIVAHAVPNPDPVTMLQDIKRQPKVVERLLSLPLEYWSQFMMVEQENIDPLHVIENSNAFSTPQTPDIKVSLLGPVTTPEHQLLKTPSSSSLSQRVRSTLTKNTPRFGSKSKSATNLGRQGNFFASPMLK
About 2,100 (0.62%) of roughly 340,000 compounds were called active. These entries were drawn from the full list. Results with a measured potency or affinity are listed apart.
Output satisfied for inhibition not less than 7%; output not satisfied otherwise.

Ask: Does inhibition meet or surpass 7% for COc1ccc(/C=N/n2c(C)nc3ccccc3c2=O)cc1OC ?
Result: not satisfied

Ask: Does inhibition meet or surpass 7% for COc1ccc(-n2c(/C=C3\C(=O)N(C)c4ccccc43)nc3ccccc3c2=O)cc1 ?
Result: satisfied

Ask: Does inhibition meet or surpass 7% for C/C=C/c1ccc(O)c(OC)c1 ?
Result: satisfied

Ask: Does inhibition meet or surpass 7% for CCCc1nc2ccccc2c(=O)n1/N=C/c1ccccc1O ?
Result: satisfied

Ask: Does inhibition meet or surpass 7% for CCCc1nc2ccccc2c(=O)n1/N=C/c1ccc(O)cc1 ?
Result: not satisfied

###

biological target: Rac GTPase-activating protein 1 (Homo sapiens) (UniProt Q9H0H5); experiment: blockers of MgcRacGAP-driven Rac1 GTP hydrolysis – biochemical, ADP Hunter fluorescence, primary and confirmatory, confirmation (AID 624330); details: MgcRacGAP-stimulated Rac1 GTP hydrolysis, at 30 µM, active compounds read high, GST-tagged Rac1 F28L mutant substrate;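 further: fluorescence reports GDP produced by GAP-driven GTP hydrolysis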
The whole screen tested about 340,000 compounds, of which about 2,100 (0.62%) were called active. A selection follows. Measured potencies and affinities stand elsewhere.
Property Name: inhibition (%)
Give your result in % as a bare value.

Ask: // Input: CCCOC(=O)c1cc(-c2ccc(/C=C3/C(=O)N(C)C(=O)C(C#N)=C3C)o2)ccc1Cl . Output its inhibition only.
Result: 13.4

Ask: // Input: COc1cc(-c2csc(CCn3nc(C)cc3C)n2)cc(OC)c1OC . Output its inhibition only.
Result: 4.55

Ask: // Input: CCCNC(=S)N1CCN(Cc2ccc3c(c2)OCO3)CC1 . Output its inhibition only.
Result: 23.5

Ask: // Input: COc1ccc(/C=N/NC(=O)CC(=O)NCCc2ccccc2)cc1OC . Output its inhibition only.
Result: 1.81

Ask: // Input: O=C(Nc1ccc2c(c1)OCCO2)c1ccc(Br)c(S(=O)(=O)N2CCOCC2)c1 . Output its inhibition only.
Result: -4.87

Ask: // Input: CC(C)(C)S(=O)(=O)N1C[C@@H]2CC/C=C\C/C(c3ccccc3)=C\2[C@H]1CCO . Output its inhibition only.
Result: 6.06

Ask: // Input: Cc1ccc(-n2c(CNc3cccc(Cl)c3)n[nH]c2=S)cc1 . Output its inhibition only.
Result: -10.3

Ask: // Input: CCOC(=O)[C@@H]1[C@H]2COc3ccccc3[C@@H]2N2C(=O)N(c3cccc(Cl)c3)C(=O)[C@@]12C . Output its inhibition only.
Result: 7.95

Ask: // Input: CCc1nc(SCC(=O)N2CCN(c3ccccc3)CC2)c2oc3ccccc3c2n1 . Output its inhibition only.
Result: 18.4

Ask: // Input: CCc1nc(Nc2ccccc2)c2oc3ccccc3c2n1 . Output its inhibition only.
Result: 7.79

Ask: // Input: c1ccc2c(c1)oc1c(Nc3ccc(CN4CCOCC4)cc3)ncnc12 . Output its inhibition only.
Result: 14.1

Ask: // Input: CC(=O)Nc1ccc2c(c1)N(S(=O)(=O)c1cccs1)CCC2 . Output its inhibition only.
Result: 4.49

Ask: // Input: COc1ccc(/C=N/NC(=O)C(C)n2nnc3ccccc32)cc1OC (centres undefined) . Output its inhibition only.
Result: 8.77

Ask: // Input: CCc1nc(Nc2ccc(F)cc2)c2oc3ccccc3c2n1 . Output its inhibition only.
Result: 10.5

Ask: // Input: O=C(Nc1ccccc1Cl)Oc1ccc(Cl)cc1Cl . Output its inhibition only.
Result: 9.61

Ask: // Input: Cc1ccc(NC(=O)c2sccc2C)cc1S(=O)(=O)N(C)C . Output its inhibition only.
Result: 11.1

Ask: // Input: CCOc1ccc(NC(=O)CN(C)C(=O)c2ccc(C)c(S(=O)(=O)N3CCCCC3)c2)cc1OCC . Output its inhibition only.
Result: 6.08

Ask: // Input: O=C(c1ccccc1)c1ccccc1C(=O)N1CCN(Cc2ccccc2F)CC1 . Output its inhibition only.
Result: 15.4

Ask: // Input: COC(=O)c1ccc(/C=N\NC(=O)CC(=O)NCCc2ccccc2)cc1 . Output its inhibition only.
Result: 0.63

Ask: // Input: COc1ccc(C(O)c2nc3ccccc3n2C)cc1OC (centres undefined) . Output its inhibition only.
Result: 3.18

Ask: // Input: CC1=C([N+](=O)[O-])C(c2ccccc2C(F)(F)F)NC(=O)N1C (centres undefined) . Output its inhibition only.
Result: 2.05

Ask: // Input: CN(C(=O)CN1C(=O)NC(C)(c2cccc(Br)c2)C1=O)C1CCCCC1 (centres undefined) . Output its inhibition only.
Result: 6.93

Ask: // Input: COc1cccc(-c2nn(C)c3sc(C(=O)NCc4ccc(C)cc4)cc23)c1 . Output its inhibition only.
Result: 5.17

Ask: // Input: C=CCn1c(SCC(=O)Nc2ccc3c(c2)OCO3)nnc1-c1ccccc1 . Output its inhibition only.
Result: 6.23

Ask: // Input: O=C1c2cc([N+](=O)[O-])ccc2-c2ncccc21 . Output its inhibition only.
Result: -4.67

Ask: // Input: O=C(Nc1ccccc1Cl)OCC#CCOC(=O)Nc1ccccc1Cl . Output its inhibition only.
Result: 11

Ask: // Input: O=C(O)c1ccccc1C(=O)N1CCN(Cc2ccc3c(c2)OCO3)CC1 . Output its inhibition only.
Result: 6.42

Ask: // Input: COc1ccc(CCNC(=O)c2nnc(Cc3c(F)cccc3Cl)o2)cc1OC . Output its inhibition only.
Result: 3.35

Ask: // Input: COc1ccc(Cl)cc1C(=O)NCCN1CCOCC1 . Output its inhibition only.
Result: 3.67

Ask: // Input: CCCNC(=S)N1CC2(C)CN(C(=O)C(=O)OC)CC(C)(C1)C2=O . Output its inhibition only.
Result: 2.02

Ask: // Input: COCCNC(=O)c1onc(CSc2ccccc2)c1C(=O)O . Output its inhibition only.
Result: 7.12

Ask: // Input: CCOC(=O)c1oc2ccccc2c1NC(=O)C(C)(C)C . Output its inhibition only.
Result: 4.02

Ask: // Input: c1ccc(Nc2ncnc3c2oc2ccccc23)cc1 . Output its inhibition only.
Result: 13

Ask: // Input: CCOc1cc(/C=N\NC(=O)Cn2nnc3ccccc32)ccc1O . Output its inhibition only.
Result: 28.1

Ask: // Input: CC1=C(C#N)C(=O)NC(=O)/C1=C/c1ccc(-c2ccc(S(N)(=O)=O)cc2)o1 . Output its inhibition only.
Result: 25.6

Ask: // Input: CS(=O)(=O)c1ccc(C(=O)Nc2ccc(S(=O)(=O)N3CCCCC3)cc2)cc1 . Output its inhibition only.
Result: 3.97

Ask: // Input: COc1cc(/C=N/NC(=O)C(=O)NCc2ccco2)ccc1O . Output its inhibition only.
Result: 17.7

Ask: // Input: COc1ccc(S(=O)(=O)N2CCOCC2)cc1NC(=O)c1cc(C)oc1C . Output its inhibition only.
Result: 6.98

Ask: // Input: CCc1ccc(N2CN(Cc3cccnc3)CNC2=S)cc1 . Output its inhibition only.
Result: 4.47

Ask: // Input: Cc1cc(=O)[nH]c(SCC(=O)Nc2ccccc2[N+](=O)[O-])n1 . Output its inhibition only.
Result: 6.16

Ask: // Input: COc1cccc(/C=N/NC(=O)CCn2nnc3ccccc32)c1 . Output its inhibition only.
Result: 1.99

Ask: // Input: NC(=O)c1ccc(NC(=O)CN2CCN(C(=O)c3ccco3)CC2)cc1 . Output its inhibition only.
Result: 13.6

Ask: // Input: CCNC(=S)N1CCN(Cc2ccc3c(c2)OCO3)CC1 . Output its inhibition only.
Result: 3.54

Ask: // Input: CCn1c(SCC(=O)Nc2cc(C)on2)nnc1-c1cccc(C)c1 . Output its inhibition only.
Result: 7.99
